Biological target: HLA A0201 (human)
Assay: 125I-probe competition, purified HLA
measured.attribute: pIC50
For clarity, pIC50 is expressed as the negative log10 of concentration in mol/L.

# count of solved cases: 5
binder	measured.attribute	measured.result
TVYVFCFLL (modifications not checked) [HPV18.E5.51]	pIC50	6.76
VAWDSVYYM (modifications not checked) [HPV18.E2.136]	pIC50	6.76
FLLCFCVLL (modifications not checked) [HPV31.E5.15]	pIC50	8.02
YVVWDSIYYI (modifications not checked) [HPV45.E2.137]	pIC50	7.11
GTLGIVCPV (modifications not checked) [HPV16.E7.85.V9]	pIC50	7.70

Which pIC50 reading was recorded for the binder KLTNKGICDL (modifications not checked) [HPV31.E6.90] ?
6.69

Origin of values: patent US20100272750A1
